molecular target: human adenosine A3 receptor (Homo sapiens (Human), UniProt P0DMS8); assay: FLIPR calcium flux functional assay, A3 receptor; format: cell-based; conditions: mammalian cell line expressing human A3; calcium flux
Sequence (P0DMS8 whole entry): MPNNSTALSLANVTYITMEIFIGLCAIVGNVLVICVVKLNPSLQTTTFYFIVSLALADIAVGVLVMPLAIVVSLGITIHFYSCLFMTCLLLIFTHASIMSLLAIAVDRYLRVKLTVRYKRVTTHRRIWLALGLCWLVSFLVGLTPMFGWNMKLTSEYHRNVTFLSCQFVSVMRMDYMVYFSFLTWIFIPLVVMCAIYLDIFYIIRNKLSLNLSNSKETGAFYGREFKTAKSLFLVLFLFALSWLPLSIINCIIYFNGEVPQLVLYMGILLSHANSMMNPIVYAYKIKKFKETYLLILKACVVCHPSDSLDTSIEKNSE
observed property: Kb
Remember to quote the unit after the number.

C=Cc1cc2nc(NCc3cccnc3)nc(C(=O)c3cccs3)c2s1	0.747 µM
Nc1cc2nc(NCc3cccnc3)nc(C(=O)c3cccs3)c2s1	0.233 µM
CCNc1cc2nc(NCc3cccnc3)nc(C(=O)c3cccs3)c2s1	0.0373 µM
CCc1cc2nc(NCc3cccnc3)nc(C(=O)c3cccs3)c2s1	0.361 µM
CNc1cc2nc(NCc3cccnc3)nc(C(=O)c3cccs3)c2s1	0.0229 µM
CN(C)c1cc2nc(NCc3cccnc3)nc(C(=O)c3cccs3)c2s1	0.13 µM

For the next question, use this compound.
Measured Kb (human adenosine A3 receptor (Homo sapiens (Human), UniProt P0DMS8)), entry O=C(c1cccs1)c1nc(NCc2cccnc2)nc2cc(NCc3cccnc3)sc12 : 0.308 µM

* * *

molecular target: human adenosine A1 receptor (Homo sapiens (Human)); test: FLIPR calcium flux functional assay, A1 receptor; assay type: cell-based; details: mammalian cell line expressing human A1; calcium flux
observed property: Kb (nM)
// return numeric value only (unit: nM, not printed)

Quick note, Kb for CCc1cc2nc(NCc3cccnc3)nc(C(=O)c3cccs3)c2s1 landed at 216

* * *

biological target: human adenosine A2B receptors (Homo sapiens (Human)); assay: FLIPR calcium flux functional assay, A2B receptor; type: cell-based; conditions: mammalian cell line expressing human A2B
Sequence (P29275 whole entry): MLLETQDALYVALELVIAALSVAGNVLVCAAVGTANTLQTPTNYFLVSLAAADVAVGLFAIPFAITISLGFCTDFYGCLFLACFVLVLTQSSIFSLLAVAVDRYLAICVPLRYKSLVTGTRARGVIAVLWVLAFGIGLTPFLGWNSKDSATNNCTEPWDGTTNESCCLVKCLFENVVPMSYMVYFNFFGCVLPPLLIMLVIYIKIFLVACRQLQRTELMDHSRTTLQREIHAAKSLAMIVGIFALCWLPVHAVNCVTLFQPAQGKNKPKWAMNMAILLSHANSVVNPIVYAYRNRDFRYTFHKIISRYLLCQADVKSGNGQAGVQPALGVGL
Listed here: items and their measured Kb.
// return numeric value only (unit: nM, not printed)

Below: 5 molecules and their reported Kb.
O=C(c1cccs1)c1nc(NCc2cccnc2)nc2cc(NCc3cccnc3)sc12	68.9
CCNc1cc2nc(NCc3cccnc3)nc(C(=O)c3cccs3)c2s1	6.7
Nc1cc2nc(NCc3cccnc3)nc(C(=O)c3cccs3)c2s1	7.1
CNc1cc2nc(NCc3cccnc3)nc(C(=O)c3cccs3)c2s1	1.4
CCc1cc2nc(NCc3cccnc3)nc(C(=O)c3cccs3)c2s1	36.7

Measured Kb (human adenosine A2B receptors (Homo sapiens (Human))), entry C=Cc1cc2nc(NCc3cccnc3)nc(C(=O)c3cccs3)c2s1 : 52.3

Measured Kb (human adenosine A2B receptors (Homo sapiens (Human))), entry CN(C)c1cc2nc(NCc3cccnc3)nc(C(=O)c3cccs3)c2s1 : 6.5

* * *

molecular target: human adenosine A1 receptor (Homo sapiens (Human), UniProt P30542); experiment: FLIPR calcium flux functional assay, A1 receptor; type: cell-based; conditions: selectivity ratio of Kb values
Sequence (P30542 whole entry): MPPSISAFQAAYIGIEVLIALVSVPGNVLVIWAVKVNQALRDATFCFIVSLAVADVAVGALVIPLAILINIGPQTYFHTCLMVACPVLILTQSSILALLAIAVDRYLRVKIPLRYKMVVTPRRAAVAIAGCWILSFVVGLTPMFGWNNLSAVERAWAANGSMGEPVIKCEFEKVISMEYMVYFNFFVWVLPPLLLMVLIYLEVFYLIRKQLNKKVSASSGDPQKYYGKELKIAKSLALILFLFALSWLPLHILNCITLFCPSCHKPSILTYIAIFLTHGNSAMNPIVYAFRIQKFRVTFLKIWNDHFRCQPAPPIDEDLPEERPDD
observed property: A1/A2b
Answer with the value's number alone.

Below: 6 compounds and their reported A1/A2b.
O=C(c1cccs1)c1nc(NCc2cccnc2)nc2cc(NCc3cccnc3)sc12	4
CNc1cc2nc(NCc3cccnc3)nc(C(=O)c3cccs3)c2s1	41
CCNc1cc2nc(NCc3cccnc3)nc(C(=O)c3cccs3)c2s1	18
C=Cc1cc2nc(NCc3cccnc3)nc(C(=O)c3cccs3)c2s1	3
Nc1cc2nc(NCc3cccnc3)nc(C(=O)c3cccs3)c2s1	155
CCc1cc2nc(NCc3cccnc3)nc(C(=O)c3cccs3)c2s1	6

Quick note, A1/A2b for CN(C)c1cc2nc(NCc3cccnc3)nc(C(=O)c3cccs3)c2s1 landed at 3

* * *

target: human adenosine A2A receptor (Homo sapiens (Human), UniProt P29274); experiment: FLIPR calcium flux functional assay, A2A receptor; assay type: cell-based; settings: selectivity ratio of Kb values
Sequence (P29274 whole entry): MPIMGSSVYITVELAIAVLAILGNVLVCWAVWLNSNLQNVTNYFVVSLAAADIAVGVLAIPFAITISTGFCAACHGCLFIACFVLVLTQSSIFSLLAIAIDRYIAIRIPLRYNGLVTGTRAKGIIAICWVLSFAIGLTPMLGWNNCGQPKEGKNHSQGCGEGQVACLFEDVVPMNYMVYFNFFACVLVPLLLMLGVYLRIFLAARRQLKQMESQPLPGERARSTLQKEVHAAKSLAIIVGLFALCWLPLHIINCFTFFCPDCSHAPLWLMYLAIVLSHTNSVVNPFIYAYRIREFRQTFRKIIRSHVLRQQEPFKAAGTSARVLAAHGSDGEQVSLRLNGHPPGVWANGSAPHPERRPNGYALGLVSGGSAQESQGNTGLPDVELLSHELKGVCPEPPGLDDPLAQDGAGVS
observed property: A2a/A2b
Answer with the value's number alone.

Below: 3 compounds and their reported A2a/A2b.
O=C(c1cccs1)c1nc(NCc2cccnc2)nc2cc(NCc3cccnc3)sc12	12
CN(C)c1cc2nc(NCc3cccnc3)nc(C(=O)c3cccs3)c2s1	49
CCNc1cc2nc(NCc3cccnc3)nc(C(=O)c3cccs3)c2s1	109

Quick note, A2a/A2b for CNc1cc2nc(NCc3cccnc3)nc(C(=O)c3cccs3)c2s1 landed at 198

* * *

molecular target: human adenosine A3 receptor (Homo sapiens (Human)); test: FLIPR calcium flux functional assay, A3 receptor; format: cell-based; conditions: selectivity ratio of Kb values
Listed here: items and their measured A3/A2b.
Answer with the value's number alone.

Below: 3 molecules and their reported A3/A2b.
CN(C)c1cc2nc(NCc3cccnc3)nc(C(=O)c3cccs3)c2s1 [Example 7]	20
CNc1cc2nc(NCc3cccnc3)nc(C(=O)c3cccs3)c2s1 [Example 6]	16
Nc1cc2nc(NCc3cccnc3)nc(C(=O)c3cccs3)c2s1 [Example 9]	33

Quick note, A3/A2b for CCNc1cc2nc(NCc3cccnc3)nc(C(=O)c3cccs3)c2s1 [Example 8] landed at 6

Quick note, A3/A2b for O=C(c1cccs1)c1nc(NCc2cccnc2)nc2cc(NCc3cccnc3)sc12 [Example 12] landed at 4

Quick note, A3/A2b for CCc1cc2nc(NCc3cccnc3)nc(C(=O)c3cccs3)c2s1 [Example 11] landed at 10

Quick note, A3/A2b for C=Cc1cc2nc(NCc3cccnc3)nc(C(=O)c3cccs3)c2s1 [Example 10] landed at 14

* * *

target: UniProt P29274; assay: FLIPR calcium flux functional assay, A2A receptor; type: cell-based; details: mammalian cell line expressing human A2A; calcium flux
// classify: if (Kb < 700 nM) Criterion met else Criterion not met

O=C(c1cccs1)c1nc(NCc2cccnc2)nc2cc(NCc3cccnc3)sc12 [Example 12]	Criterion not met
Nc1cc2nc(NCc3cccnc3)nc(C(=O)c3cccs3)c2s1 [Example 9]	Criterion not met
C=Cc1cc2nc(NCc3cccnc3)nc(C(=O)c3cccs3)c2s1 [Example 10]	Criterion not met
CNc1cc2nc(NCc3cccnc3)nc(C(=O)c3cccs3)c2s1 [Example 6]	Criterion met
CN(C)c1cc2nc(NCc3cccnc3)nc(C(=O)c3cccs3)c2s1 [Example 7]	Criterion met
CCc1cc2nc(NCc3cccnc3)nc(C(=O)c3cccs3)c2s1 [Example 11]	Criterion not met

Here is another compound to look at.
Kb under 700 nM? Item: CCNc1cc2nc(NCc3cccnc3)nc(C(=O)c3cccs3)c2s1 [Example 8]
Criterion not met

* * *

molecular target: human adenosine A1 receptor (Homo sapiens (Human), UniProt P30542); experiment: FLIPR calcium flux functional assay, A1 receptor; assay type: cell-based; settings: mammalian cell line expressing human A1; calcium flux
Listed here: items and their measured Kb.
// return numeric value only (unit: nM, not printed)

Below: 2 compounds and their reported Kb.
O=C(c1cccs1)c1nc(NCc2cccnc2)nc2cc(NCc3cccnc3)sc12	256
CCNc1cc2nc(NCc3cccnc3)nc(C(=O)c3cccs3)c2s1	118

Quick note, Kb for Nc1cc2nc(NCc3cccnc3)nc(C(=O)c3cccs3)c2s1 landed at 1100

Quick note, Kb for C=Cc1cc2nc(NCc3cccnc3)nc(C(=O)c3cccs3)c2s1 landed at 161

Quick note, Kb for CN(C)c1cc2nc(NCc3cccnc3)nc(C(=O)c3cccs3)c2s1 landed at 19.4

Quick note, Kb for CNc1cc2nc(NCc3cccnc3)nc(C(=O)c3cccs3)c2s1 landed at 57.6

* * *

target: human adenosine A2A receptor (Homo sapiens (Human), UniProt P29274); experiment: FLIPR calcium flux functional assay, A2A receptor; assay type: cell-based; conditions: selectivity ratio of Kb values
Listed here: items and their measured A2a/A2b.

CCc1cc2nc(NCc3cccnc3)nc(C(=O)c3cccs3)c2s1	>102

Measured A2a/A2b (human adenosine A2A receptor (Homo sapiens (Human), UniProt P29274)), entry C=Cc1cc2nc(NCc3cccnc3)nc(C(=O)c3cccs3)c2s1 : >71

Measured A2a/A2b (human adenosine A2A receptor (Homo sapiens (Human), UniProt P29274)), entry Nc1cc2nc(NCc3cccnc3)nc(C(=O)c3cccs3)c2s1 : >196
